Numbers sourced from patent US7271165B2.

Tested on: E. faecalis
Test: MIC assay, E. faecalis
Format: cell-based, Enterococcus faecalis
Decision: MIC (μg/mL) E. faecalis beneath 1 µg/mL gives Fulfilled; MIC (μg/mL) E. faecalis meeting or exceeding 1 µg/mL gives Not fulfilled.

Below, 5 compounds whose answers are already recorded.
COC1C=COC2(C)Oc3c(C)c(O)c4c(=O)c(c5oc6cc(N7CC8C(C7)C8N(C)C)cc(O)c6nc-5c4c3C2=O)NC(=O)C(C)=CC=CC(C)C(O)C(C)C(O)C(C)C(O)C1C (stereo not drawn) [Compound 54] | Not fulfilled
CO[C@H]1/C=C/O[C@@]2(C)Oc3c(C)c(O)c4c(=O)c(c5oc6cc(N7C[C@H]8CCCN[C@H]8C7)cc(O)c6nc-5c4c3C2=O)NC(=O)/C(C)=C\C=C\[C@H](C)[C@H](O)[C@@H](C)[C@@H](O)[C@@H](C)[C@H](OC(C)=O)[C@@H]1C [Compound 12] | Fulfilled
COC1C=COC2(C)Oc3c(C)c(O)c4c(=O)c(c5oc6cc(N7CCC(c8ccccc8)CC7)cc(O)c6nc-5c4c3C2=O)NC(=O)C(C)=CC=CC(C)C(O)C(C)C(O)C(C)C(O)C1C (stereo not drawn) [Compound 62] | Not fulfilled
COC1C=COC2(C)Oc3c(C)c(O)c4c(=O)c(c5sc6cc(N7CCC(N(C)C)CC7)ccc6nc-5c4c3C2=O)NC(=O)C(C)=CC=CC(C)C(O)C(C)C(O)C(C)C(OC(C)=O)C1C (stereo not drawn) [Compound 69] | Fulfilled
CO[C@H]1/C=C/O[C@@]2(C)Oc3c(C)c(O)c4c(=O)c(c5oc6cc(N7CCC(NC(=O)OCC(C)C)CC7)cc(O)c6nc-5c4c3C2=O)NC(=O)/C(C)=C\C=C\[C@H](C)[C@H](O)[C@@H](C)[C@@H](O)[C@@H](C)[C@H](OC(C)=O)[C@@H]1C [Compound 13] | Fulfilled

Q: Is it true that MIC (μg/mL) E. faecalis reported for COC1C=COC2(C)Oc3c(C)c(O)c4c(=O)c(c5oc6cc(N7CCCC7)c(C7CCCCC7)cc6nc-5c4c3C2=O)NC(=O)C(C)=CC=CC(C)C(O)C(C)C(O)C(C)C(O)C1C (stereo not drawn) [Compound 115] is less than 1 µg/mL?
A: Not fulfilled

Q: Is it true that MIC (μg/mL) E. faecalis reported for CCc1cc2nc3c4c5c6c(C)c(O)c4c(=O)c(c-3oc2cc1N1CCCCC1)NC(=O)/C(C)=C\C=C\[C@H](C)[C@H](O)[C@@H](C)[C@@H](O)[C@@H](C)[C@H](O)[C@H](C)[C@@H](OC)/C=C/O[C@@](C)(O6)C5=O [Compound 108] is less than 1 µg/mL?
A: Not fulfilled

Q: Is it true that MIC (μg/mL) E. faecalis reported for COC1C=COC2(C)Oc3c(C)c(O)c4c(=O)c(c5oc6cc(N7CCN(C8CCN(C)CC8)CC7)cc(O)c6nc-5c4c3C2=O)NC(=O)C(C)=CC=CC(C)C(O)C(C)C(O)C(C)C(O)C1C (stereo not drawn) [Compound 95] is less than 1 µg/mL?
A: Fulfilled

Q: Is it true that MIC (μg/mL) E. faecalis reported for COC1C=COC2(C)Oc3c(C)c(O)c4c(=O)c(c5sc6cc(N7CCN8CCCC8C7)ccc6nc-5c4c3C2=O)NC(=O)C(C)=CC=CC(C)C(O)C(C)C(O)C(C)C(OC(C)=O)C1C (stereo not drawn) [Compound 76] is less than 1 µg/mL?
A: Fulfilled

Q: Is it true that MIC (μg/mL) E. faecalis reported for COC1C=COC2(C)Oc3c(C)c(O)c4c(=O)c(c5oc6cc(N7CC(C)NC(C)C7)cc(O)c6nc-5c4c3C2=O)NC(=O)C(C)=CC=CC(C)C(O)C(C)C(O)C(C)C(O)C1C (stereo not drawn) [Compound 87] is less than 1 µg/mL?
A: Fulfilled

Q: Is it true that MIC (μg/mL) E. faecalis reported for COC1C=COC2(C)Oc3c(C)c(O)c4c(=O)c(c5oc6cc(N7CCC(NC(=O)N8CCN(C)CC8)CC7)cc(O)c6nc-5c4c3C2=O)NC(=O)C(C)=CC=CC(C)C(O)C(C)C(O)C(C)C(OC(C)=O)C1C (stereo not drawn) [Compound 50] is less than 1 µg/mL?
A: Not fulfilled

Q: Is it true that MIC (μg/mL) E. faecalis reported for COC1C=COC2(C)Oc3c(C)c(O)c4c(=O)c(c5oc6cc(N7CCC(NC(C)=O)CC7)cc(O)c6nc-5c4c3C2=O)NC(=O)C(C)=CC=CC(C)C(O)C(C)C(O)C(C)C(O)C1C (stereo not drawn) [Compound 43] is less than 1 µg/mL?
A: Not fulfilled

Q: Is it true that MIC (μg/mL) E. faecalis reported for COC1C=COC2(C)Oc3c(C)c(O)c4c(=O)c(c5oc6cc(N7CCC(C)(N(C)C)CC7)cc(O)c6nc-5c4c3C2=O)NC(=O)C(C)=CC=CC(C)C(O)C(C)C(O)C(C)C(O)C1C (stereo not drawn) [Compound 73] is less than 1 µg/mL?
A: Fulfilled

Q: Is it true that MIC (μg/mL) E. faecalis reported for COC1C=COC2(C)Oc3c(C)c(O)c4c(=O)c(c5oc6cc(N7CCC(NC(=O)SC)CC7)cc(O)c6nc-5c4c3C2=O)NC(=O)C(C)=CC=CC(C)C(O)C(C)C(O)C(C)C(OC(C)=O)C1C (stereo not drawn) [Compound 45] is less than 1 µg/mL?
A: Not fulfilled

* * *

Tested on: H. flu
Type: cell-based, H. influenza
Details: H. flu
Overview of reported MIC (μg/mL) H. flu across a group of compounds:

COCCOC(=O)NC1CCN(c2cc(O)c3nc4c5c6c7c(C)c(O)c5c(=O)c(c-4oc3c2)NC(=O)C(C)=CC=CC(C)C(O)C(C)C(O)C(C)C(O)C(C)C(OC)C=COC(C)(O7)C6=O)CC1 (stereo not shown) | 0.25 µg/mL
COC1C=COC2(C)Oc3c(C)c(O)c4c(=O)c(c5oc6cc(N7CC8C(C7)C8N(C)C)cc(O)c6nc-5c4c3C2=O)NC(=O)C(C)=CC=CC(C)C(O)C(C)C(O)C(C)C(OC(C)=O)C1C (stereo not shown) | 2 µg/mL
CCNC(=O)NC1CCN(c2cc(O)c3nc4c5c6c7c(C)c(O)c5c(=O)c(c-4oc3c2)NC(=O)C(C)=CC=CC(C)C(O)C(C)C(O)C(C)C(O)C(C)C(OC)C=COC(C)(O7)C6=O)CC1 (stereo not shown) | 0.25 µg/mL

Below: the item to evaluate.
Q: Which MIC (μg/mL) H. flu is reported with H. flu for this entry: "CO[C@H]1/C=C/O[C@@]2(C)Oc3c(C)c(O)c4c(=O)c(c5oc6cc(N7C[C@H]8CCCN[C@H]8C7)cc(O)c6nc-5c4c3C2=O)NC(=O)/C(C)=C\C=C\[C@H](C)[C@H](O)[C@@H](C)[C@@H](O)[C@@H](C)[C@H](OC(C)=O)[C@@H]1C" ?
A: 0.25 µg/mL

* * *

System: H. flu
Type: cell-based, H. influenza
Conditions: H. flu
Overview of reported MIC (μg/mL) H. flu across a group of molecules:
Quick note: give the figure in µg/mL, leave out the unit.

Reference set (3 entries):
CCOc1c(N2CCN(CC3CC3)CC2)ccc2nc3c4c5c6c(C)c(O)c4c(=O)c(c-3oc12)NC(=O)/C(C)=C\C=C\[C@H](C)[C@H](O)[C@@H](C)[C@@H](O)[C@@H](C)[C@H](O)[C@H](C)[C@@H](OC)/C=C/O[C@@](C)(O6)C5=O | 1
COC1C=COC2(C)Oc3c(C)c(O)c4c(=O)c(c5oc6cc(N7CCC(NC(C)=O)CC7)cc(O)c6nc-5c4c3C2=O)NC(=O)C(C)=CC=CC(C)C(O)C(C)C(O)C(C)C(O)C1C (stereo not shown) | 0.5
COC1C=COC2(C)Oc3c(C)c(O)c4c(=O)c(c5n(C)c6cc(N7CC(C)NC(C)C7)ccc6nc-5c4c3C2=O)NC(=O)C(C)=CC=CC(C)C(O)C(C)C(O)C(C)C(O)C1C (stereo not shown) | 4

Below: the item to evaluate.
Q: Which MIC (μg/mL) H. flu is reported with H. flu for this entry: "CCc1cc2nc3c4c5c6c(C)c(O)c4c(=O)c(c-3oc2cc1N1CCCCC1)NC(=O)/C(C)=C\C=C\[C@H](C)[C@H](O)[C@@H](C)[C@@H](O)[C@@H](C)[C@H](O)[C@H](C)[C@@H](OC)/C=C/O[C@@](C)(O6)C5=O" ?
A: 2

* * *

System: H. flu
Type: cell-based, H. influenza
Conditions: H. flu
Decision: MIC (μg/mL) H. flu beneath 0.5 µg/mL gives Condition met; MIC (μg/mL) H. flu meeting or exceeding 0.5 µg/mL gives Condition not met.

Below, 2 molecules whose answers are already recorded.
COC1C=COC2(C)Oc3c(C)c(O)c4c(=O)c(c5sc6cc(N7CC(C)N(CC8CC8)CC7C)ccc6nc-5c4c3C2=O)NC(=O)C(C)=CC=CC(C)C(O)C(C)C(O)C(C)C(O)C1C (stereo not drawn) | Condition not met
COC1C=COC2(C)Oc3c(C)c(O)c4c(=O)c(c5oc6cc(N7CC(C)NC(C)C7)cc(O)c6nc-5c4c3C2=O)NC(=O)C(C)=CC=CC(C)C(O)C(C)C(O)C(C)C(O)C1C (stereo not drawn) | Condition met

We next turn to a different molecule, shown below.
Q: Is it true that MIC (μg/mL) H. flu reported for "CCCNC(=O)NC1CCN(c2cc(O)c3nc4c5c6c7c(C)c(O)c5c(=O)c(c-4oc3c2)NC(=O)/C(C)=C\C=C\[C@H](C)[C@H](O)[C@@H](C)[C@@H](O)[C@@H](C)[C@H](OC(C)=O)[C@H](C)[C@@H](OC)/C=C/O[C@@](C)(O7)C6=O)CC1" is less than 0.5 µg/mL?
A: Condition met
